The reported measurements were obtained from the supplement of paper PMC7156485.

Reported cell number is given for each of the following compounds.
System: TDF
procedureText: cell number relative to DMSO (% of DMSO); higher = more cells (less growth inhibition / toxicity)
conditionNotes: concentration: 10 µM; 24 h
Format: numeric value only, no unit, no commentary.

For orientation, consider the following solved cases.
INSERT INTO assay_data (compound, experimentalreadout, observedresult) VALUES
  ('Nn1nnc2ccccc21', 'cell number', 107),
  ('CCc1ccc(CCOc2ccc(CC3SC(=O)NC3=O)cc2)nc1 (stereo not given)', 'cell number', 105),
  ('CCCCCC=CCC=CCC=CCC=CCCCC(=O)OC(CO)CO', 'cell number', 107),
  ('COc1c2ccoc2cc2oc(C)cc(=O)c12', 'cell number', 102);

Then this compound:
Input line: Consider the compound C=CCc1ccc(O)c(OC)c1 and give its measured cell number.
Output line: 114

---

Test system: TDF
procedureText: cell number relative to DMSO (% of DMSO); higher = more cells (less growth inhibition / toxicity)
conditionNotes: concentration: 10 µM; 24 h
Reported cell number is given for each of the following compounds.

For orientation, consider the following solved cases.
INSERT INTO measurements (compound, observedresult) VALUES
  ('CCC(C)N(C)C(=O)c1cc2ccccc2c(-c2ccccc2Cl)n1 (stereo not given)', 110),
  ('COc1c(O)c2c(=O)cc(OC)c3c4c(OC)cc(=O)c5c(O)c(OC)c6c(c(c1CC(C)(O)C6C(C)=O)c23)c54 (stereo not given) [Hypocrellin A]', 67.1),
  ('CC1=CC(=O)C2=C(C)CCC3C(C)C(=O)OC3C12 (stereo not given) [Leucomisine]', 111),
  ('CCSC(N)=Nc1ccc(C(F)(F)F)cc1.Cl [TFPI hydrochloride]', 90.8),
  ('NS(=O)(=O)c1cc2c(cc1Cl)NC(C1CC3C=CC1C3)NS2(=O)=O (stereo not given) [Cyclothiazide]', 105);

Input line: Consider the compound CCCCCC(=O)CCC1C(O)CC(O)C1CC=CCCCC(=O)O (stereo not given) [13,14-Dihydro-15-keto-prostaglandin F2a] and give its measured cell number.
Output line: 94

Input line: Consider the compound CN(C)CCOC(c1ccccc1)c1ccccc1.Cl [Diphenhydramine.HCl] and give its measured cell number.
Output line: 103

---

Test system: TDF
procedureText: H1.0 immunofluorescence intensity relative to DMSO (% of DMSO); higher = stronger H1.0 induction, active = 120 or more
conditionNotes: concentration: 10 µM; 24 h
experimentalReadout: H1.0 immunofluorescence intensity
Format: numeric value only, no unit, no commentary.

For orientation, consider the following solved cases.
INSERT INTO assay_data (molecule, observedresult) VALUES
  ('CC(CC(c1ccccc1)c1ccccc1)NC(C)(C)C.Cl (stereo not drawn) [N-(tert-butyl)-4,4-diphenyl-2-butanamine hydrochloride]', 99.1),
  ('CCC1(O)CC2CN(CCc3c([nH]c4ccccc34)C(C(=O)OC)(c3cc4c(cc3OC)N(C=O)C3C(O)(C(=O)OC)C(OC(C)=O)C5(CC)C=CCN6CCC43C65)C2)C1.O=S(=O)(O)O (stereo not drawn) [Vincristine sulfate]', 167);

Input line: Consider the molecule Cc1nc2c([nH]1)c(=O)n(C)c(=O)n2Cc1ccco1 and give its measured H1.0 immunofluorescence intensity.
Output line: 94.5

Input line: Consider the molecule COCc1nc2c([nH]1)c(=O)n(C)c(=O)n2CC(C)C and give its measured H1.0 immunofluorescence intensity.
Output line: 92.4
